Assay: reversal of MRP1-mediated doxorubicin resistance, pilot screen, H69AR cells, doxorubicin co-treatment (AID 601)
Details: H69AR cells + 2 uM doxorubicin, CellTiter-Glo, 72 h; at 10 µM; active compounds read high
Calls of active or inactive are those of the source.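 Rule for the calls: active = viability loss from added drug above about 55%, and viability with drug at most 40%, in both replicates (limit read from the data, passing the limit was not always enough); inconclusive = both conditions met in only one replicate; inactive = neither replicate meets both conditions.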
QUANTITY_KIND: differential viability (reversal)

Worked set:
differential viability (reversal) for CC(CCc1ccccc1)NC(=O)c1ccc(Br)o1 (stereo unspecified) is 9.45% (inactive)

differential viability (reversal) for CC(=O)Nc1nc(C)c(-c2csc(Nc3ccc(O)cc3)n2)s1 is -5.39% (inactive)

differential viability (reversal) for Cc1nnc(SCc2ccccc2F)n1NCc1cccs1 is -0.635% (inactive)

differential viability (reversal) for CC1CCN(S(=O)(=O)c2ccc(Br)s2)CC1 is 6.46% (inactive)

differential viability (reversal) for COc1ccccc1NS(=O)(=O)c1ccc(OC)c(OC)c1 is -3.15% (inactive)

Next:
differential viability (reversal) for CCc1cc(-c2[nH]ncc2-c2ccc3c(c2)OCO3)c(O)cc1O is -14.2% (inactive)
